biological target: cAMP-dependent protein kinase catalytic subunit beta (Homo sapiens) + cAMP-dependent protein kinase type II-beta regulatory subunit (Homo sapiens) (UniProt P22694+P31323); experiment: activators of PKA-R2B holoenzyme, primary screen, biochemical, fluorescence polarization, Cy5-IP20, human (AID 504700); conditions: PKA-R2B holoenzyme dissociation, at 11.4 µM, 0% DMSO only, 100% 113 µM cGMP, R2B truncated from residue 108, S112A mutant;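 note: higher means more holoenzyme dissociation and a rise in polarization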
Sequence (P31323 whole entry, looked up, other chains not shown, the tested form may be a part): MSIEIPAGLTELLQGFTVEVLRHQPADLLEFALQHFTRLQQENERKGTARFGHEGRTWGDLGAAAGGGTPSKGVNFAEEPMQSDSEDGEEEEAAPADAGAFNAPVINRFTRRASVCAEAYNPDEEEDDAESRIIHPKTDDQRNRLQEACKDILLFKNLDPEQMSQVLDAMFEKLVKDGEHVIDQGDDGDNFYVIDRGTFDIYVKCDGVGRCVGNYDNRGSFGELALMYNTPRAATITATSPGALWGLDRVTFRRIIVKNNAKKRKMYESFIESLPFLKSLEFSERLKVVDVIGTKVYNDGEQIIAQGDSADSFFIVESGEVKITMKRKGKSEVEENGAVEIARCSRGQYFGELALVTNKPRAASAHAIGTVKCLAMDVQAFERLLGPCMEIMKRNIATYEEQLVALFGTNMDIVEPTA
Screen size: about 340,000 compounds; about 270 (0.079%) were called active.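 Rule for the calls: active = activation above a cutoff set at the mean over all compounds plus 3 SD (cut at about 18% in these data); inactive = the rest.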 Only a selection was taken, and actives are over-represented in it overall. Where a SMILES comes first, the peptide text is derived from it.
Classes used: active, inactive

molecule: COc1ccc(-n2c(-c3ccc(Cl)cc3)n[nH]c2=S)c(OC)c1
assigned.category: inactive

molecule: C[C@@H]1CN([C@H](C)CO)C(=O)c2cc(Br)cnc2O[C@@H]1CN(C)Cc1cncnc1
assigned.category: inactive

molecule: CC1(C)CN(CCc2ccccc2)C(=O)[C@H]1CC(=O)Nc1ccc(Br)cc1
assigned.category: inactive

molecule: CCCCN1CC(C)(C)[C@H](CC(=O)Nc2ccc(Br)cc2)C1=O
assigned.category: inactive

molecule: C[C@H]1CN([C@@H](C)CO)C(=O)CCCn2cc(nn2)CO[C@@H]1CN(C)S(=O)(=O)c1ccc(-c2ccccc2)cc1
assigned.category: inactive

molecule: COc1ncnc2c1ncn2CCCNCCN1CCOCC1
assigned.category: inactive

molecule: CCCCN1C[C@H](c2ccc(Br)cc2)[C@@H](CC(=O)Nc2ccc(Br)cc2)C1=O
assigned.category: inactive

molecule: O=C(OCc1cn([C@@H]2C[C@H](c3ccc(Cl)cc3)N(Cc3cccs3)C[C@H]2O)nn1)c1ccccc1
assigned.category: inactive

molecule: Cc1ccc(S(=O)(=O)N2CCCCC2)cc1NC(=O)CCNC(=O)c1ccccc1Cl
assigned.category: inactive

molecule: O=C(Nc1ccc2c(c1)[C@@H]1C[C@@H](CC(=O)N3CCCCC3)O[C@@H](CO)[C@@H]1O2)NC1CCCCC1
assigned.category: inactive

molecule: O=C(CNC(=O)c1ccccc1)NCC(=O)OCC(=O)c1ccccc1 (HELM PEPTIDE1{[O=C(c1ccccc1)[*:2]].G.G.[O=C(CO[*:1])c1ccccc1]}$$$$V2.0)
assigned.category: active

molecule: N#CCSc1ccccc1NC(=O)CN1C(=O)NC(CCc2ccccc2)C1=O (configuration not stated)
assigned.category: inactive

molecule: C[C@@H]1CN([C@H](C)CO)S(=O)(=O)c2ccc(C#C[C@@H](C)O)cc2O[C@@H]1CN(C)Cc1ccc(-c2ccccc2)cc1
assigned.category: inactive

molecule: O=C(O)C1=C(C(=O)O)C2CCC1C2
assigned.category: active

molecule: CC(C)N=C1CCCC1C(=S)SSC(=S)C1CCCC1=NC(C)C (configuration not stated)
assigned.category: inactive

molecule: CC1CCN(c2ccc3c(c2)S(=O)(=O)c2cc(C(=O)O)ccc2C3=O)CC1
assigned.category: inactive

molecule: C[C@H]1CN([C@@H](C)CO)C(=O)c2cc(C3=CCCCC3)cnc2O[C@@H]1CN(C)C(=O)Cc1ccccc1
assigned.category: inactive

molecule: COc1ccc(C(C)(C)C)cc1NC(=O)CN(C)C1=NS(=O)(=O)c2ccccc21
assigned.category: inactive

molecule: CCN1C(=O)[C@H]2[C@@H](c3ccccc3)N[C@]3(CCCN(Cc4ccc(C)cc4)C3=O)[C@H]2C1=O
assigned.category: inactive

molecule: O=C(CNC(=O)c1ccccc1)NCC(=O)OCc1ccc(Cl)cc1
assigned.category: inactive

molecule: N#Cc1ccccc1CN1C(=O)S/C(=C/c2cccn2-c2cccc(C(=O)O)c2)C1=O
assigned.category: active

molecule: CCOC(=O)c1c(C)[nH]c(C)c1C(=O)COC(=O)/C=C/c1cccc([N+](=O)[O-])c1
assigned.category: inactive

molecule: COc1ccc(OC)c(NC(=O)C2CCCN2S(=O)(=O)c2ccc3c(c2)CC(C)N3C(C)=O)c1 (configuration not stated)
assigned.category: inactive

molecule: Cc1ccc(-c2ccc(C3=CC(=O)CC(C)(C)C3=O)cc2)cc1
assigned.category: inactive

molecule: CCc1c(N=O)c(-c2ccccc2)n(O)[n+]1[O-]
assigned.category: inactive

molecule: Cc1cc(/C=C2/SC(=O)N(CC(=O)N3CCCC3)C2=O)c(C)n1C
assigned.category: inactive

molecule: O=S(=O)(NCCc1ccccc1)c1ccccc1
assigned.category: inactive

molecule: C[C@@H]1CN([C@H](C)CO)C(=O)CCCn2nncc2CO[C@@H]1CN(C)C(=O)OCc1ccccc1
assigned.category: inactive

molecule: O=C1[C@H]2[C@@H](c3ccc(C(F)(F)F)cc3)N[C@]3(CCCN(Cc4ccc(Cl)cc4)C3=O)[C@H]2C(=O)N1Cc1ccccc1
assigned.category: inactive

molecule: CCN(CC)CCN(C(=O)c1ccc2c(c1)CCCC2)c1nc2c(OC)cccc2s1
assigned.category: inactive

molecule: C[C@H]1CN([C@@H](C)CO)C(=O)c2cc(Br)cnc2O[C@H]1CN(C)S(=O)(=O)c1cccs1
assigned.category: inactive

molecule: O=C(CC(CC(=O)c1ccccc1)c1ccco1)c1ccccc1
assigned.category: inactive

molecule: CCC(Oc1ccccc1)C(=O)OCC(=O)Nc1c(C)nn(-c2ccccc2)c1C (configuration not stated)
assigned.category: inactive

molecule: CCCCN1C(=O)C(CC(=O)NC(c2ccccc2)c2ccccc2)CC(C(=O)N2CCOCC2)=C1C (configuration not stated)
assigned.category: inactive

molecule: CNC(=O)c1ccc(CN(C)C(=O)c2cc(C3CC3)nc3c2cnn3C(C)C)cc1
assigned.category: inactive

molecule: C/C(COc1ccccc1)=N\NC(=O)c1nnn(-c2nonc2N)c1-c1ccc(C)cc1
assigned.category: inactive

molecule: Cc1nn(Cc2ccccc2)c(C)c1C(=O)NCCN1C(=O)S/C(=C\c2ccc(F)cc2)C1=O
assigned.category: inactive
